System: wheat germ agglutinin (Triticum aestivum), Alexa647-labelled
Experiment: wheat germ agglutinin binders on compound microarrays, profiling panel, artefact control for SMM control-protein annotation, biochemical, small-molecule microarray, 635/667 nm fluorescence (AID 1140);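 also: score merges 667 nm feature emission with signal to noise over triplicate slides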
Conditions: WGA-A647 binding, 635 nm fluorescence, higher = more signal
Respond with fulfilled for composite z-score values of -0.2 and above, not fulfilled for values below.

-- ask Assess whether reported composite z-score for NC(=O)[C@H]1[C@@H]2C(=O)O[C@@H](c3ccccc3)[C@@H](c3ccccc3)N2[C@@H](c2ccc(O)cc2)[C@]12C(=O)Nc1ccc(C#CCCO)cc12 sits at -0.2 or higher.
-- reply not fulfilled

-- ask Does composite z-score meet or surpass -0.2 for Cc1ccc(S(=O)(=O)N2[C@@H](c3ccccc3)C(C(=O)O)=CC[C@H]2c2ccccc2)cc1 ?
-- reply fulfilled

-- ask For this molecule, is measured composite z-score -0.2 or higher? CC1=C([C@H](O)CCc2ccccc2)[C@H](CO)[C@@H]2C(=O)N(Cc3ccccc3)C(=O)[C@@H]2C1
-- reply fulfilled

-- ask Could you verify whether the entry C[N+](C)(C)CCCCNC(=O)[C@H]1C[C@H]2C(=O)NCC(=O)N2[C@H]1c1cccc(OCCO)c1 shows composite z-score of no less than -0.2?
-- reply fulfilled
